B1: HDV Ribozyme (parent)
chain: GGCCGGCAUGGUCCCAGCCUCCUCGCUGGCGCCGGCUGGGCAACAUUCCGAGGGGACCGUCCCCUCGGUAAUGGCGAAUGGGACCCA

- Variants of: B1
- assayInfo: self-cleavage, relative activity (ratio to wild type); higher = more cleavage; co-transcriptional

orderedResidues: GGCCGGCAUGGUCCCAGCCACCUCGCUGGCGCCGGCUGGGCAACAUUCCGAGGGGACCGUCCCCUCGGUAAUGGCGAUUGGGACCCA
self-cleavage: 0

orderedResidues: GGCCGGCAUGGUCCCAGCCUCCUCGCUGGCCCCGGCUGGGCAACAUUCCGAGGGGACCGUCCCCUCGUUAAUGGCGAAUGGGACCCA
self-cleavage: 0.233

orderedResidues: GGCCGGCAGGGUCCCAGCCUCCUAGCUGGCGCCGGCUGGGCAACAUUCCGAGGGGACCGUCCCCUCGGUAAUGGCGAAUGGGACCCA
self-cleavage: 0.525

orderedResidues: GGCCGGCAUGGUCCCAGCCUCCUGGUUGGCGCCGGCUGGGCAACAUUCCGAGGGGACCGUCCCCUCGGUAAUGGCGAAUGGGACCCA
self-cleavage: 0.514

orderedResidues: GGCCGGCAUGGUCCCAGCCUUCUCGCUGGCGCCGGCUGGGCAACAUUCCGAGGGUACCGUCCCCUCGGUAAUGGCGAAUGGGACCCA
self-cleavage: 0.17

orderedResidues: GGUCGGCAUGGUCCCAGCCUCCUCGCUGGCGCCGGCUGGGCAACAUUCCGAGGAGACCGUCCCCUCGGUAAUGGCGAAUGGGACCCA
self-cleavage: 0.633

orderedResidues: GGCCGGCAUGGUCCCAGCCUCCUCGAUGGCGCCGGCUGGGCAACAUUCCGAGGGGACCGUCCCCUCGGUAAAGGCGAAUGGGACCCA
self-cleavage: 0.692

orderedResidues: GGCCGGCAUGGUCCCAGCCUCCUCGCUGGCGCCGGCUGGGCAACACUCCGAGGGGACCGUCCCCUCGGUAAUGGCGAAUCGGACCCA
self-cleavage: 0.399

orderedResidues: GGCCGGCAUGGUCCCAGCCCCCUCGCUGGCGCCGGCUGGGAAACAUUCCGAGGGGACCGUCCCCUCGGUAAUGGCGAAUGGGACCCA
self-cleavage: 0.156

orderedResidues: GGCCGGUAUGGUCCCAGCCUCCUCGCUGGCGCCGGCUGGGCAACAUUCCGAGGGGACGGUCCCCUCGGUAAUGGCGAAUGGGACCCA
self-cleavage: 1.02

orderedResidues: GGCCGGCAUGGUCCCAGCCUCCUCGCUGGCGCCGGCUGGGCAACAUUCCGGGGGGACCGUCCCCUCAGUAAUGGCGAAUGGGACCCA
self-cleavage: 0.831

orderedResidues: GGCCUGCAUGGUCCCAGCCUCCUCGCUGGCGCCGGCUGGGCAACAUUCCGAGGGGACCGUCCCCUCGGUAAUGGCGAAUGGGACCUA
self-cleavage: 0.554

orderedResidues: GGCCGGCAUGGUCCCAGCCUCCUCGCUGGCGCUGGCUGGGCAACAUUCCGAGGGGACCGUCCCUUCGGUAAUGGCGAAUGGGACCCA
self-cleavage: 0.785

orderedResidues: GGCCGGCAUGGUCCCAGCCUCCUCGCUGGCGCCGGAUGGGCAACAUUCCGAGGGGACCGUCACCUCGGUAAUGGCGAAUGGGACCCA
self-cleavage: 0.261

orderedResidues: GGCCGGCAUGGUCCCAGUCUCCUCGCUGGCGCCGGCUGGGCAACAUUCCGAGGGGACCGUCCCCUCGGUAAUGGCGAAUGGGACACA
self-cleavage: 0.574

orderedResidues: GGCCGGCAUGGUCCCAGCCUCCUCGCUGGCGCCGGCUGGGCAACAUUCCGAGGGGACCGUUCCCUCGGUAAUGGCGAAUGGGACCUA
self-cleavage: 1.03

orderedResidues: GGCCGGCAUGGUCCCAGCCUCCUCGCCGGUGCCGGCUGGGCAACAUUCCGAGGGGACCGUCCCCUCGGUAAUGGCGAAUGGGACCCA
self-cleavage: 0.426

orderedResidues: GGCCGGCAAGGUCCCAGCCUCCUCGCUGGCGCCGGCUGGGUAACAUUCCGAGGGGACCGUCCCCUCGGUAAUGGCGAAUGGGACCCA
self-cleavage: 1.07

orderedResidues: GGCCGGCAUGGUCCCAGCCUCCUCGCUGGGGCCGGCUGGUCAACAUUCCGAGGGGACCGUCCCCUCGGUAAUGGCGAAUGGGACCCA
self-cleavage: 0.0514

orderedResidues: GGCCGGCAUGGUCCCAGCCUCCUCGCUGGCGUCGGCUGGGCAACAGUCCGAGGGGACCGUCCCCUCGGUAAUGGCGAAUGGGACCCA
self-cleavage: 0.646

orderedResidues: GGCCGGCAUGGUCCCAGCCUCCUCUCUGGCGCCGGCUGGGCAACAUUCUGAGGGGACCGUCCCCUCGGUAAUGGCGAAUGGGACCCA
self-cleavage: 0.481

orderedResidues: GGCCGGCAUGGUCCCAGCCUCCUCGCUGGCGCCGGCUUGGCAACAUUCCGAGGGGAUCGUCCCCUCGGUAAUGGCGAAUGGGACCCA
self-cleavage: 0.126
